- protocol_text: label from the status in PepcDB records
measured_quantity: protein production

Observe how each entry below is paired with its result.
MTRIIPFALAVAALATAGAAQASTMVIGGGAAKECSDSALKGRSDKRSVLACTSALELENLNFRDRARTYVNRGVLQMRQKDFGAARSDFDAAGAIDPNLGEVFVNRGAAYVGEERYREGVEQIDKGLALGVKEPEKAWFNRGLANEGLGDLKAAFRDYSRAAELNPDWPAPKLELTRFSVKRP = failed
MGRKSNRAKEKKQRRLEERAAMDAVCAKVDAANKLEDPLSAMPVFKKYDRNGLNLQIECKRVTALSPDTVEWAYELTRANMQTLYEQSEWGWKEREKREEMKDERAWYLLARDADSTPLAFSHFRFDVECGDEVLYCYEVQLESKVRRKGLGKFLIQILQLIANSTQMKKVMLTVFKHNHGAYQFFREALQFEIDETSPSMSGCCGEDCSYEILSRRTKYGEVSGHAHGGHCGGCCH = not failed
ETNEITIGITVTTTGPAAALGIPERNALEFVAKEIGGHPLKVIVLDDGGDPTAATTNARRFVTESKADVIMGSSVTPPTVAVSNVANEAQVPHIALAPLPITPERAKWSVAMPQPIPIMGKVLYEHMKKNNIKTVGYIGYSDSYGDLWFNDLKKQGEAMGLKIVAEERFARPDTSVAGQVLKLVAANPDAILVGASGTAAALPQTSLRERGYKGLIYQTHGAASMDFIRIAGKSAEGVLMASGPVMDPEGQDDSALTKKPGLELNTAYEAKYGPNSRSQFAAHSFDAFKVLERVVPVALKTAKPGTQEFREAIRKALVSEKDIAASQGVYSFTETDRYGLDDRSRILLTVKDGKYVMVK = not failed
MLVSLIYVFKQVLSANLDLFYILSLILLIKSLIKKEKYLIKLLYVIYIILFYTGIQIIFLNTSIDLIRYFVSSFKLILNFNLLFYIIKKIKFININKIIKNISYIFFIILVFALILRNNNILWRLNDYVNTFEEVRLRFFYYEPSELGFQVAIIIIIFVFKIYTKKIINKKDFCIIIFLSIILSLTSAYGAIISLMLALIPILFKSFKLNSYKKLLIAYSIILISIVIIYLNFYKISDSYIVQRGLSIISGEDGSVNYRFDIGLNIMINALKNTNLLGVGLSNANTDNFIIEYSNFGLVEVIANSFMYVITELGVLAVVFLVYLLIKCLISAKINNSILKLSLIIYIFSYQIAGGYFSNPTNWIIYGIILSNIKDEELFGRKD = failed

Can you look up the measured protein production of `MKLSQQSLSIIESAIQKAVGKYVCNCEQTVVTDIHLQPDQTSGQLNIYNDDDEELANVMVEEWATYDGDDFLENIEPGLRSILCRMKDAGDFDKVTILKPYSFVLVDEDKETVTELLLVDDDTMLVNDELLKGLDKELDDFLKELLEK` for me? failed

Can you look up the measured protein production of `MGKKKNKKTEVQQPDPMRKNWIMENMDSGVIYLLESWLKAKSQETGKEISDIFANAVEFNIVLKDWGKEKLEETNTEYQNQQRKLRKTYIEYYDREMK` for me? not failed

Can you look up the measured protein production of `MGTIKIVTDSSITIEPELIKALDITVVPLSVMIDSKLYSDNDLKEEGHFLSLMKASKSLPKTSQPPVGLFAETYENLVKKGVTDIVAIHLSPALSGTIEASRQGAEIAEAPVTVLDSGFTDQAMKFQVVEAAKMAKAGASLNEILAAVQAIKSKTELYIGVSTLENLVKGGRIGRVTGVLSSLLNVKVVMALKNDELKTLVKGRGNKTFTKWLDSYLAKNSHRPIAEIAISYAGEASLALTLKERIAAYYNHSISVLETGSIIQTHTGEGAFAVMVRYE` for me? not failed

Can you look up the measured protein production of `MNEKVYYFIKSYDDSLPMPPAESFGQILNETYLHPFDWSARTTRKSYWWSVLINFILSILCIVLGFYAFNKNINPGIRVIDAVVAIVVYLWVFLAGLGQMVRRLHDVGYSGYWYWSTFTGYGTMFLFYLALQPSAQRKVKWGKYLFSDQDYPEGKKEKVPVPTIGQILKEHFFDCFNWDARSTRTSFWVGTAINQVVMVIGVLACYLIAFLLFLPFRVTGLNSDDSKVIAVFFIIFLIFFAAVTIWAFLAQLGHTVRRLHDAGFNGGWWWLSVIPYVGQLLLAFLLFHPTVKNEVKWNKYLFDPEDRIR` for me? failed

Can you look up the measured protein production of `MNQVVEFLKIFIPLFIVIDPFGSLVLFTSMTYNFNESEKLRATKDAVFYGGIILVLFALAGEYIIYFFGISIEALEMAGGIILLLMAVEMIMEGNRPKSSGSEIVDYDIGIVPFATPMLAGPGAISLVIILMKGPIIAKIYTIISIAIIFAMVYIFFKWSSVVSKFIGAKVMKAISRIFGLLLAGFAIQYFIDAIVALSLLK` for me? failed

Can you look up the measured protein production of `MNISLSRVHFPVTTLGPGQRLGLWFQGCSIRCAGCISADTWGPGKHPLPLAQVLDDLQPWLARAEGITLSGGEPFDQPEALLALLRGLRERTGVDILVYSGHSLETLQPLLQQAEGLLDALICDPFEQQQAQTLVLRGSDNQRLIFLTELGRQRLSTYQRPLHHEDRALDVMFDDDGSVWMAGIPRRDDVLRLRDLLHDQGHQLQISAHTSRRRLEHHHHHH` for me? failed

Can you look up the measured protein production of `MILCYGDNNIMMDIYKEIKEEMKKVYLSRDCCFVGYSGGKDSSAMLTLLWDAIAELPLEERTNPIHILTSEVGVETPAMTAYISRTLQKIQEKANEQNLPFVVHGVKPLMKESYWYKVIGRGVLPPSGNSRLRWCTDSLKVKPMQRKMKEILIASQTTTAVECFDEYDGVLMLAVRNEESARRRHSIQKHEISNDSLFSRHNDMKNILCFNPVKFLTGDEVWMLLLDRGI` for me? failed

Can you look up the measured protein production of `MSLSKKIAVIGECMIELSEKGADVKRGFGGDTLNTSVYIARQVDPAALTVHYVTALGTDSFSQQMLDAWHGENVDTSLTQRMENRLPGLYYIETDSTGERTFYYWRNEAAAKFWLASEQSAAICEELANFDYLYLSGISLAILSPTSREKLLSLLRECRAKGGKVIFDNNYRPRLWASKEETQQVYQQMLECTDIAFLTLDDEDALWGQQPVEDVIARTHNAGVKEVVVKRGADSCLVSIAGEALVDVPAVKLPKEKVIDTTAAGDSFSAGYLAVRLTGGSAENAAKRGHLTASTVIQYRGAIIPREAMPAEGHHHHHH` for me? not failed
